Tested on: Trypanosoma cruzi
Experiment: Trypanosoma cruzi phosphomannomutase and mannose-1-phosphate guanylyltransferase assay
Format: functional
Design: scale not given: direction of the effect not stated beside the values
Settings: 10 µM
A collection of compounds and their measured Percent Effect
observation.type: Percent Effect (%)

> print(dat)
                                    compound  observation.type  readout.number
 1  COCC1CN(C(=O)c2cccn2C)Cc2ncnn2C1 (stereo not drawn)    Percent Effect            9.34
 2  CCc1n[nH]c(C2CN(Cc3nnc(C4CC4)n3C)CCO2)n1 (stereo not drawn)    Percent Effect           -1.08
 3  CCCC1CCCN(Cc2csc(-c3cnn(C)c3)n2)CC1 (stereo not drawn)    Percent Effect          -0.376
 4  O=C(c1ccc2c(c1)CCCC2)N1CCOCC1c1ncon1 (stereo not drawn)    Percent Effect            2.17
 5      c1cncc(OCc2nnn3c2CN(Cc2ccsc2)CCC3)c1    Percent Effect            7.72
 6         O=C(Cc1ccc2c(c1)CCC2)NCCNc1ncccn1    Percent Effect            2.89
 7  O=C(Nc1cccnc1)N1CCC(n2ccc(C(F)(F)F)n2)CC1    Percent Effect            3.72
 8  Cn1c(CN2CCOC(c3nc(C(C)(C)C)n[nH]3)C2)nnc1C1CC1 (stereo not drawn)    Percent Effect            7.35
 9  CCN1CCOC(CNCc2ccccn2)C1 (stereo not drawn)    Percent Effect            7.19
10  Cc1n[nH]cc1CNc1ccc2c(c1)CN(C(=O)OC(C)(C)C)CC2    Percent Effect            2.26
11  CN(c1ccncn1)C1CC2(CCN(C(=O)CCc3cccs3)C2)C1 (stereo not drawn)    Percent Effect            5.34
12  Cc1cc(-c2cnc(N3CCN(C)CC3)nc2-c2ccc(C)s2)on1    Percent Effect           -4.15
13         O=C(CCc1nc2cccnc2[nH]1)NCc1cccnc1    Percent Effect            3.34
14     Cc1nc(CN2CCc3nn(C(C)C)c(=O)cc3C2)oc1C    Percent Effect           -3.83
15  CN(C)C(=O)COCc1cncc2c1CCN(Cc1cnn(C)c1)C2    Percent Effect          0.0983
16  Cc1cc(C2CCCN(C(=O)c3c(C)noc3C)C2)n[nH]1 (stereo not drawn)    Percent Effect           0.292
17  N#Cc1ccc(C2CC(=O)Nc3c2cnn3C2CCCC2)cc1 (stereo not drawn)    Percent Effect            4.77
18  CN1C(=O)C(c2cccnc2)CC12CCN(C(=O)c1cccn1C)CC2 (stereo not drawn)    Percent Effect               0
